# Substrate: C[C@H](O)[C@H](N)C(=O)O
# measurement_notes: purified protein
# Format: biochemical, Escherichia coli
# recorded_conditions: 20 mM potassium phosphate, pH 7.0, 30 °C, retro-aldol cleavage
readout_type: Km (µM)

protein	readout_type	numeric_result
low-specificity Escherichia coli L-threonine aldolase (eTA) (Escherichia coli K-12; H126F) (protein) MIDLRSDTVTRPSRAMLEAMMAAPVGDDVYGDDPTVNALQDYAAELSGKEAAIFLPTGTQANLVALLSHCERGEEYIVGQAAHNYLFEAGGAAVLGSIQPQPIDAAADGTLPLDKVAMKIKPDDIFFARTKLLSLENTHNGKVLPREYLKEAWEFTRERNLALHVDGARIFNAVVAYGCELKEITQYCDSFTICLSKGLGTPVGSLLVGNRDYIKRAIRWRKMTGGGMRQSGILAAAGIYALKNNVARLQEDHDNAAWMAEQLREAGADVMRQDTNMLFVRVGEENAAALGEYMKARNVLINASPIVRLVTHLDVSREQLAEVAAHWRAFLAR	Km	200
low-specificity Escherichia coli L-threonine aldolase (eTA) (Escherichia coli K-12; K222A) (protein) MIDLRSDTVTRPSRAMLEAMMAAPVGDDVYGDDPTVNALQDYAAELSGKEAAIFLPTGTQANLVALLSHCERGEEYIVGQAAHNYLFEAGGAAVLGSIQPQPIDAAADGTLPLDKVAMKIKPDDIHFARTKLLSLENTHNGKVLPREYLKEAWEFTRERNLALHVDGARIFNAVVAYGCELKEITQYCDSFTICLSKGLGTPVGSLLVGNRDYIKRAIRWRAMTGGGMRQSGILAAAGIYALKNNVARLQEDHDNAAWMAEQLREAGADVMRQDTNMLFVRVGEENAAALGEYMKARNVLINASPIVRLVTHLDVSREQLAEVAAHWRAFLAR	Km	1200
low-specificity Escherichia coli L-threonine aldolase (eTA) (Escherichia coli K-12; F87D) (protein) MIDLRSDTVTRPSRAMLEAMMAAPVGDDVYGDDPTVNALQDYAAELSGKEAAIFLPTGTQANLVALLSHCERGEEYIVGQAAHNYLDEAGGAAVLGSIQPQPIDAAADGTLPLDKVAMKIKPDDIHFARTKLLSLENTHNGKVLPREYLKEAWEFTRERNLALHVDGARIFNAVVAYGCELKEITQYCDSFTICLSKGLGTPVGSLLVGNRDYIKRAIRWRKMTGGGMRQSGILAAAGIYALKNNVARLQEDHDNAAWMAEQLREAGADVMRQDTNMLFVRVGEENAAALGEYMKARNVLINASPIVRLVTHLDVSREQLAEVAAHWRAFLAR	Km	410
low-specificity Escherichia coli L-threonine aldolase (eTA) (Escherichia coli K-12; F87A) (protein) MIDLRSDTVTRPSRAMLEAMMAAPVGDDVYGDDPTVNALQDYAAELSGKEAAIFLPTGTQANLVALLSHCERGEEYIVGQAAHNYLAEAGGAAVLGSIQPQPIDAAADGTLPLDKVAMKIKPDDIHFARTKLLSLENTHNGKVLPREYLKEAWEFTRERNLALHVDGARIFNAVVAYGCELKEITQYCDSFTICLSKGLGTPVGSLLVGNRDYIKRAIRWRKMTGGGMRQSGILAAAGIYALKNNVARLQEDHDNAAWMAEQLREAGADVMRQDTNMLFVRVGEENAAALGEYMKARNVLINASPIVRLVTHLDVSREQLAEVAAHWRAFLAR	Km	310
